Tested on: BE2-M17 (Neuroblastoma)
Assay: combination Emax (second highest fraction inhibited in the dose matrix, 72 h); higher = more inhibition; extreme values may be limits of the assay

MOLECULE	combination Emax
CCc1c2c(nc3ccc(O)cc13)-c1cc3c(c(=O)n1C2)COC(=O)[C@]3(O)CC [SN-38] + O=C(c1cc(Cc2n[nH]c(=O)c3ccccc23)ccc1F)N1CCN(C(=O)C2CC2)CC1 [Olaparib] (first compound max 0.3 µM, 7x7, partner max 10 µM)	0.89
Cc1cc2ncnn2cc1Nc1ncc2c(n1)n(C1CCOCC1)c(=O)n2C [AZD7648] + C=CCn1c(=O)c2cnc(Nc3ccc(N4CCN(C)CC4)cc3)nc2n1-c1cccc(C(C)(C)O)n1 [AZD1775] (first compound max 10 µM, partner max 1 µM)	0.704
CC(=O)Nc1cccc(-n2c(=O)n(C3CC3)c(=O)c3c(Nc4ccc(I)cc4F)n(C)c(=O)c(C)c32)c1 [Trametinib] + Cc1nc(-c2cn3c(n2)-c2ccc(-c4cnn(C(C)(C)C(N)=O)c4)cc2OCC3)n(C(C)C)n1 [Taselisib] (first compound max 1 µM, 7x7, partner max 10 µM)	0.994
Cn1cnc2c(F)c(Nc3ccc(Br)cc3Cl)c(C(=O)NOCCO)cc21 [Selumetinib] + CCN(CCO)CCCOc1ccc2c(Nc3cc(CC(=O)Nc4cccc(F)c4)[nH]n3)ncnc2c1 [AZD2811] (first compound max 10 µM, 7x7, partner max 1 µM)	0.644

---

Test system: SAS (Oral Cavity Carcinoma)
Assay: combination Emax (second highest fraction inhibited in the dose matrix, 72 h); higher = more inhibition; extreme values may be limits of the assay
READOUT_TYPE: combination Emax

MOLECULE	MEASUREMENT_TARGET	RECORDED_VALUE
CCc1c2c(nc3ccc(O)cc13)-c1cc3c(c(=O)n1C2)COC(=O)[C@]3(O)CC [SN-38] + O=C(c1cc(Cc2n[nH]c(=O)c3ccccc23)ccc1F)N1CCN(C(=O)C2CC2)CC1 [Olaparib] (first compound max 0.3 µM, 7x7, partner max 10 µM)	SAS (Oral Cavity Carcinoma)	1
CN(CCO)CC[C@H](CSc1ccccc1)Nc1ccc(S(=O)(=O)NC(=O)c2ccc(N3CCC([C@@H](O)c4ccccc4-c4ccc(Cl)cc4)CC3)cc2)cc1S(=O)(=O)C(F)(F)F [AZD4320] + CCN(CCO)CCCOc1ccc2c(Nc3cc(CC(=O)Nc4cccc(F)c4)[nH]n3)ncnc2c1 [AZD2811] (first compound max 1 µM, 7x7, partner max 1 µM)	SAS (Oral Cavity Carcinoma)	0.105
CN(CCO)CC[C@H](CSc1ccccc1)Nc1ccc(S(=O)(=O)NC(=O)c2ccc(N3CCC([C@@H](O)c4ccccc4-c4ccc(Cl)cc4)CC3)cc2)cc1S(=O)(=O)C(F)(F)F [AZD4320] + C=CCn1c(=O)c2cnc(Nc3ccc(N4CCN(C)CC4)cc3)nc2n1-c1cccc(C(C)(C)O)n1 [AZD1775] (first compound max 1 µM, partner max 1 µM)	SAS (Oral Cavity Carcinoma)	0.647
CCc1c2c(nc3ccc(O)cc13)-c1cc3c(c(=O)n1C2)COC(=O)[C@]3(O)CC [SN-38] + CN(C)CCCOc1ccc(-c2ccc3ncc4c(c3c2)n(C2CCOCC2)c(=O)n4C)cn1 [AZD0156] (first compound max 0.3 µM, 7x7, partner max 1 µM)	SAS (Oral Cavity Carcinoma)	1
NC1(C(=O)N[C@@H](CCO)c2ccc(Cl)cc2)CCN(c2ncnc3[nH]ccc23)CC1 [Capivasertib] + CC(C)n1c(=O)n(C)c2cnc3cc(F)c(-c4ccc(OCCCN5CCCCC5)nc4)cc3c21 [AZD1390] (first compound max 10 µM, 7x7, partner max 0.3 µM)	SAS (Oral Cavity Carcinoma)	0.26
CC1(C)CCC(CN2CCN(c3ccc(C(=O)NS(=O)(=O)c4ccc(NCC5CCOCC5)c([N+](=O)[O-])c4)c(Oc4cnc5[nH]ccc5c4)c3)CC2)=C(c2ccc(Cl)cc2)C1 [Venetoclax] + CS(=O)(=O)CCNCc1ccc(-c2ccc3ncnc(Nc4ccc(OCc5cccc(F)c5)c(Cl)c4)c3c2)o1 [Lapatinib] (first compound max 1 µM, 7x7, partner max 10 µM)	SAS (Oral Cavity Carcinoma)	0.392
C=CCn1c(=O)c2cnc(Nc3ccc(N4CCN(C)CC4)cc3)nc2n1-c1cccc(C(C)(C)O)n1 [AZD1775] + Nc1ccn([C@@H]2O[C@H](CO)[C@@H](O)C2(F)F)c(=O)n1 [Gemcitabine] (first compound max 1 µM, partner max 0.3 µM)	SAS (Oral Cavity Carcinoma)	0.996

---

Test system: HuCCT1 (Biliary Tract Carcinoma)
Experiment: combination Emax (second highest fraction inhibited in the dose matrix, 72 h); higher = more inhibition; extreme values may be limits of the assay

COMPOUND	MEASUREMENT_TARGET	combination Emax
CCc1c2c(nc3ccc(O)cc13)-c1cc3c(c(=O)n1C2)COC(=O)[C@]3(O)CC [SN-38] + O=C(c1cc(Cc2n[nH]c(=O)c3ccccc23)ccc1F)N1CCN(C(=O)C2CC2)CC1 [Olaparib] (first compound max 0.3 µM, 7x7, partner max 10 µM)	HuCCT1 (Biliary Tract Carcinoma)	0.662

---

System: ESS-1 (Other Solid Carcinomas)
Test: Bliss excess, mean over the matrix (fraction); higher = more synergy
Below, each entry is listed with its recorded Bliss excess.

COMPOUND	Bliss excess
Cc1c2c(nn1C)CSCc1cc(n(C)n1)CSc1cc(c3ccccc3c1)OCCCc1c(C(=O)O)n(C)c3c-2c(Cl)ccc13 [AZD5991] + Nc1ccn([C@@H]2O[C@H](CO)[C@@H](O)C2(F)F)c(=O)n1 [Gemcitabine] (first compound max 1 µM, 7x7, partner max 0.3 µM)	-0.0338
CC1(C)CCC(CN2CCN(c3ccc(C(=O)NS(=O)(=O)c4ccc(NCC5CCOCC5)c([N+](=O)[O-])c4)c(Oc4cnc5[nH]ccc5c4)c3)CC2)=C(c2ccc(Cl)cc2)C1 [Venetoclax] + Cn1cnc2c(F)c(Nc3ccc(Br)cc3Cl)c(C(=O)NOCCO)cc21 [Selumetinib] (first compound max 1 µM, 7x7, partner max 3 µM)	-0.0393

---

Test system: LNZTA3WT4 (Low Grade Glioma)
Assay: combination Emax (second highest fraction inhibited in the dose matrix, 72 h); higher = more inhibition; extreme values may be limits of the assay
READOUT_TYPE: combination Emax

COMPOUND	RECORDED_VALUE
NC1(C(=O)N[C@@H](CCO)c2ccc(Cl)cc2)CCN(c2ncnc3[nH]ccc23)CC1 [Capivasertib] + CC(=O)c1c(C)c2cnc(Nc3ccc(N4CCNCC4)cn3)nc2n(C2CCCC2)c1=O [Palbociclib] (first compound max 10 µM, 7x7, partner max 10 µM)	0.562
C[C@@H](Nc1cc(F)cc(F)c1)c1cc(C(=O)N(C)C)cc2c(=O)cc(N3CCOCC3)oc12 [AZD8186] + C1CN(CCC1(C(=O)N[C@@H](CCO)C2=CC=C(C=C2)Cl)N)C3=NC=NC4=C3C=CN4 [AZD5363] (first compound max 10 µM, 7x7, partner max 10 µM)	0.357
CC1(C)CCC(CN2CCN(c3ccc(C(=O)NS(=O)(=O)c4ccc(NCC5CCOCC5)c([N+](=O)[O-])c4)c(Oc4cnc5[nH]ccc5c4)c3)CC2)=C(c2ccc(Cl)cc2)C1 [Venetoclax] + COc1cc(Nc2ncc3c(n2)-c2ccc(Cl)cc2C(c2c(F)cccc2OC)=NC3)ccc1C(=O)O [Alisertib] (first compound max 1 µM, 7x7, partner max 10 µM)	0.472
NC1(C(=O)N[C@@H](CCO)c2ccc(Cl)cc2)CCN(c2ncnc3[nH]ccc23)CC1 [Capivasertib] + C[C@@H]1COCCN1C2=NC(=NC(=C2)C3(CC3)[S@](=N)(=O)C)C4=C5C=CNC5=NC=C4 [AZD6738] (first compound max 10 µM, 7x7, partner max 10 µM)	0.79

---

Tested on: WSU-NHL (B-Cell Non-Hodgkin's Lymphoma)
Assay: Bliss excess, mean over the matrix (fraction); higher = more synergy

MOLECULE	Bliss excess
COc1cccc(OCCCN)c1-c1cc(Nc2cnc(C#N)cn2)n[nH]1 [Prexasertib] + C[C@@H]1COCCN1C2=NC(=NC(=C2)C3(CC3)[S@](=N)(=O)C)C4=C5C=CNC5=NC=C4 [AZD6738] (first compound max 1 µM, 7x7, partner max 10 µM)	0.0077
COc1cccc(OCCCN)c1-c1cc(Nc2cnc(C#N)cn2)n[nH]1 [Prexasertib] + Cc1cc2ncnn2cc1Nc1ncc2c(n1)n(C1CCOCC1)c(=O)n2C [AZD7648] (first compound max 1 µM, 7x7, partner max 10 µM)	-0.0355

---

System: NCI-H524 (Small Cell Lung Carcinoma)
Assay: combination Emax (second highest fraction inhibited in the dose matrix, 72 h); higher = more inhibition; extreme values may be limits of the assay
Below, each entry is listed with its recorded combination Emax.
READOUT_TYPE: combination Emax

MOLECULE	MEASUREMENT_TARGET	READOUT_TYPE	RECORDED_VALUE
CCN(CCO)CCCOc1ccc2c(Nc3cc(CC(=O)Nc4cccc(F)c4)[nH]n3)ncnc2c1 [AZD2811] + O=C(c1cc(Cc2n[nH]c(=O)c3ccccc23)ccc1F)N1CCN(C(=O)C2CC2)CC1 [Olaparib] (first compound max 1 µM, 7x7, partner max 10 µM)	NCI-H524 (Small Cell Lung Carcinoma)	combination Emax	0.945
COc1cccc(OCCCN)c1-c1cc(Nc2cnc(C#N)cn2)n[nH]1 [Prexasertib] + O=C(c1cc(Cc2n[nH]c(=O)c3ccccc23)ccc1F)N1CCN(C(=O)C2CC2)CC1 [Olaparib] (first compound max 1 µM, 7x7, partner max 10 µM)	NCI-H524 (Small Cell Lung Carcinoma)	combination Emax	0.929
C[C@@H]1COCCN1c1cc(C2([S@](C)(=N)=O)CC2)nc(-c2ccnc3[nH]ccc23)n1 [AZD6738] + C1CC(C1)(C(=O)[O-])C(=O)[O-].N.N.[Pt+2] [Carboplatin] (first compound max 10 µM, 7x7, partner max 10 µM)	NCI-H524 (Small Cell Lung Carcinoma)	combination Emax	0.687
CC(=O)c1c(C)c2cnc(Nc3ccc(N4CCNCC4)cn3)nc2n(C2CCCC2)c1=O [Palbociclib] + Cc1c2c(nn1C)CSCc1cc(n(C)n1)CSc1cc(c3ccccc3c1)OCCCc1c(C(=O)O)n(C)c3c-2c(Cl)ccc13 [AZD5991] (first compound max 10 µM, 7x7, partner max 1 µM)	NCI-H524 (Small Cell Lung Carcinoma)	combination Emax	0.808
CN(C)CCCOc1ccc(-c2ccc3ncc4c(c3c2)n(C2CCOCC2)c(=O)n4C)cn1 [AZD0156] + C=CCn1c(=O)c2cnc(Nc3ccc(N4CCN(C)CC4)cc3)nc2n1-c1cccc(C(C)(C)O)n1 [AZD1775] (first compound max 1 µM, partner max 1 µM)	NCI-H524 (Small Cell Lung Carcinoma)	combination Emax	0.792
Cc1nc(Nc2ncc(C(=O)Nc3c(C)cccc3Cl)s2)cc(N2CCN(CCO)CC2)n1 [Dasatinib] + CC(=O)Nc1cccc(-n2c(=O)n(C3CC3)c(=O)c3c(Nc4ccc(I)cc4F)n(C)c(=O)c(C)c32)c1 [Trametinib] (first compound max 2 µM, 7x7, partner max 1 µM)	NCI-H524 (Small Cell Lung Carcinoma)	combination Emax	0.0954
CC1(C)CCC(CN2CCN(c3ccc(C(=O)NS(=O)(=O)c4ccc(NCC5CCOCC5)c([N+](=O)[O-])c4)c(Oc4cnc5[nH]ccc5c4)c3)CC2)=C(c2ccc(Cl)cc2)C1 [Venetoclax] + C1CN(CCC1(C(=O)N[C@@H](CCO)C2=CC=C(C=C2)Cl)N)C3=NC=NC4=C3C=CN4 [Capivasertib] (first compound max 1 µM, 7x7, partner max 3 µM)	NCI-H524 (Small Cell Lung Carcinoma)	combination Emax	0.166
Cc1c2c(nn1C)CSCc1cc(n(C)n1)CSc1cc(c3ccccc3c1)OCCCc1c(C(=O)O)n(C)c3c-2c(Cl)ccc13 [AZD5991] + Cc1cc2ncnn2cc1Nc1ncc2c(n1)n(C1CCOCC1)c(=O)n2C [AZD7648] (first compound max 1 µM, 7x7, partner max 10 µM)	NCI-H524 (Small Cell Lung Carcinoma)	combination Emax	0.501
CN(CCO)CC[C@H](CSc1ccccc1)Nc1ccc(S(=O)(=O)NC(=O)c2ccc(N3CCC([C@@H](O)c4ccccc4-c4ccc(Cl)cc4)CC3)cc2)cc1S(=O)(=O)C(F)(F)F [AZD4320] + C1CN(CCC1(C(=O)N[C@@H](CCO)C2=CC=C(C=C2)Cl)N)C3=NC=NC4=C3C=CN4 [Capivasertib] (first compound max 1 µM, 7x7, partner max 3 µM)	NCI-H524 (Small Cell Lung Carcinoma)	combination Emax	0.765
CCN(CCO)CCCOc1ccc2c(Nc3cc(CC(=O)Nc4cccc(F)c4)[nH]n3)ncnc2c1 [AZD2811] + C[C@@H]1COCCN1C2=NC(=NC(=C2)C3(CC3)[S@](=N)(=O)C)C4=C5C=CNC5=NC=C4 [AZD6738] (first compound max 1 µM, 7x7, partner max 10 µM)	NCI-H524 (Small Cell Lung Carcinoma)	combination Emax	1
C[C@@H](c1ccc2nccn2c1)n1nnc2ncc(-c3cnn(C)c3)nc21 [Savolitinib] + CC1(C)CCC(CN2CCN(c3ccc(C(=O)NS(=O)(=O)c4ccc(NCC5CCOCC5)c([N+](=O)[O-])c4)c(Oc4cnc5[nH]ccc5c4)c3)CC2)=C(c2ccc(Cl)cc2)C1 [Venetoclax] (first compound max 1 µM, 7x7, partner max 1 µM)	NCI-H524 (Small Cell Lung Carcinoma)	combination Emax	0.13
COc1nnc2ccc(N3CCC(c4ccc(OCCN5CCN(C)C(=O)[C@H]5C)cc4)CC3)nn12 [AZD5153] + C[C@@H]1COCCN1C2=NC(=NC(=C2)C3(CC3)[S@](=N)(=O)C)C4=C5C=CNC5=NC=C4 [AZD6738] (first compound max 1 µM, 7x7, partner max 10 µM)	NCI-H524 (Small Cell Lung Carcinoma)	combination Emax	0.915
CN(C)CCCOc1ccc(-c2ccc3ncc4c(c3c2)n(C2CCOCC2)c(=O)n4C)cn1 [AZD0156] + O=C(c1cc(Cc2n[nH]c(=O)c3ccccc23)ccc1F)N1CCN(C(=O)C2CC2)CC1 [Olaparib] (first compound max 3 µM, partner max 3 µM)	NCI-H524 (Small Cell Lung Carcinoma)	combination Emax	0.496
